Tested on: UACC-257 melanoma
Assay Comment: NCI tumour cell line growth inhibition, 48 h
Test Readout: GI50

// known answers, use as guide
1. O=C1C(c2ccccc2)=C(N2CCc3ccccc32)OC1(Cl)Cl | 2530 nM
2. CCCCCc1ccc(S(=O)(=O)Nc2cc(-c3csc(NC(=O)CN4CCN(CCO)CC4)n3)ccc2OC)cc1 | 1660 nM
3. COc1ccc2c(c1)c(-c1cc(N)n3nc(-c4cn(C)c5ccc(OC)cc45)cc3n1)cn2C | 1780 nM

*Q* Name the recorded GI50 for CN1CCN(Cc2ccc(NC(=O)c3cncc(C#Cc4cnc5[nH]ncc5c4)c3)cc2C(F)(F)F)CC1 .
*A* 2860 nM

----------
Entries annotated with measured TGI
Test system: COLO 205 colon
Assay Comment: NCI tumour cell line growth inhibition, 48 h
Unit µM implied. Number only.

// known answers, use as guide
1. CCCCCc1ccc(S(=O)(=O)Nc2cc(-c3csc(NC(=O)CN4CCN(CCO)CC4)n3)ccc2OC)cc1 | 3.11
2. COc1ccc2c(c1)c(-c1cc(N)n3nc(-c4cn(C)c5ccc(OC)cc45)cc3n1)cn2C | 3.19

*Q* Name the recorded TGI for O=C(CCCCCCNC(=O)C(O)(O)C(F)(F)F)Nc1ncc(-c2ccccc2)s1 .
*A* 10.5

*Q* Another molecule to look at: O=C1C(c2ccccc2)=C(N2CCc3ccccc32)OC1(Cl)Cl
*A* 4.36

----------
Entries annotated with measured TGI
System: A498 renal
Assay Comment: NCI tumour cell line growth inhibition, 48 h
Unit µM implied. Number only.

// known answers, use as guide
1) CCCCCc1ccc(S(=O)(=O)Nc2cc(-c3csc(NC(=O)CN4CCN(CCO)CC4)n3)ccc2OC)cc1 | 2.95
2) O=C(CCCCCCNC(=O)C(O)(O)C(F)(F)F)Nc1ncc(-c2ccccc2)s1 | 5.68
3) COC[C@]12CC[C@@H](C)[C@H](C)[C@H]1C1=CC[C@@H]3[C@@]4(C)CCCNC(C)(C)[C@@H]4CC[C@@]3(C)[C@]1(C)CC2 | 3.38

Below: the item to evaluate.
*Q* # get_value(readout= TGI, system= A498 renal) for CN1CCN(Cc2ccc(NC(=O)c3cncc(C#Cc4cnc5[nH]ncc5c4)c3)cc2C(F)(F)F)CC1
*A* 15

----------
Entries annotated with measured GI50
Test system: DU-145 prostate
Assay Comment: NCI tumour cell line growth inhibition, 48 h

// known answers, use as guide
1. COc1ccc2c(c1)c(-c1cc(N)n3nc(-c4cn(C)c5ccc(OC)cc45)cc3n1)cn2C | 1800 nM
2. CCCCCc1ccc(S(=O)(=O)Nc2cc(-c3csc(NC(=O)CN4CCN(CCO)CC4)n3)ccc2OC)cc1 | 1890 nM
3. CN1CCN(Cc2ccc(NC(=O)c3cncc(C#Cc4cnc5[nH]ncc5c4)c3)cc2C(F)(F)F)CC1 | 1540 nM

*Q* Name the recorded GI50 for O=C1C(c2ccccc2)=C(N2CCc3ccccc32)OC1(Cl)Cl .
*A* 1970 nM

----------
Entries annotated with measured GI50
System: MDA-MB-231 breast
Assay Comment: NCI tumour cell line growth inhibition, 48 h

// known answers, use as guide
1) CN1CCN(Cc2ccc(NC(=O)c3cncc(C#Cc4cnc5[nH]ncc5c4)c3)cc2C(F)(F)F)CC1 | 1.11 µM
2) O=C(CCCCCCNC(=O)C(O)(O)C(F)(F)F)Nc1ncc(-c2ccccc2)s1 | 2.48 µM
3) O=C1C(c2ccccc2)=C(N2CCc3ccccc32)OC1(Cl)Cl | 2.89 µM

Below: the item to evaluate.
*Q* Name the recorded GI50 for COc1ccc2c(c1)c(-c1cc(N)n3nc(-c4cn(C)c5ccc(OC)cc45)cc3n1)cn2C .
*A* 1.84 µM
